# assayed-system: Nonstructural protein 1 (Influenza A virus, UniProt Q194T2)
# Sequence (Q194T2 whole entry): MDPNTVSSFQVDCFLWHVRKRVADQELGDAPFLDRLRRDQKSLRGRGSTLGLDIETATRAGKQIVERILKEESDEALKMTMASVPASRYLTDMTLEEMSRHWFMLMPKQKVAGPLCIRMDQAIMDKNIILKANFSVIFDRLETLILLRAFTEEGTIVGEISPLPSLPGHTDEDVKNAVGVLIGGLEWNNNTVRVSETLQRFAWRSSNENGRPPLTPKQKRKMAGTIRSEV
# Type: functional, Influenza A virus (A/California/07/2009(H1N1))
Activity calls are given as the source filed them.
Entries and their IC50

In the examples that follow, each entry is paired with its recorded IC50.
Cc1[nH]c(=O)[nH]c1C(=O)CCCCC(=O)O    2.14 µM (active)
Cc1nc2ncccn2c1-c1csc(Nc2ccc(N(C)C)cc2)n1    8.9 µM (active)
O=S(=O)(O)c1cc(O)c(N=Nc2ccc(O)cc2O)c2ccccc12    4.32 µM (active)
O=S(=O)(c1ccc(NC(=S)NN=C2CCCCC2)cc1)N1CCOCC1    24.8 µM (active)
CCOc1cccc(/C=N/N2C(=O)CSC2=S)c1O    1.83 µM (active)

So for O=S1(=O)Nc2c(ccc3cccnc23)-c2ccccc21 , the logged IC50 turned out to be 3.63 µM (active)

###

Entries and their AC50
# assayed-system: Heat shock protein HSP 90-alpha (Homo sapiens)
# Format: functional, organism-based
The source made the active and inactive calls.

In the examples that follow, each entry is paired with its recorded AC50.
CC1=C(C(=O)OCc2ccccc2)C(/C=C/c2ccccc2)NC(S)=N1 (centres undefined)    4.08 µM (active)
CCN(CCO)C1CC(=O)N(c2ccccc2C)C1=O (centres undefined)    2.14 µM (active)
C=CC(n1cncn1)C(O)(c1ccccc1)c1ccccc1 (centres undefined)    0.826 µM (active)
Cc1ccc(N/N=C(\C=O)C(=O)c2ccc(Cl)cc2)cc1    5.6 µM (active)
COc1cc(/C=C/[N+](=O)[O-])ccc1OC(=O)c1cc2ccccc2oc1=O    1.01 µM (active)

So for O=S1(=O)Nc2c(ccc3cccnc23)-c2ccccc21 , the logged AC50 turned out to be < 0.195 µM (active)

So for O=C1c2ccccc2NC(c2ccc(-c3ccc(C(F)(F)F)cc3)o2)N1O (centres undefined) , the logged AC50 turned out to be 7.23 µM (active)

So for COc1ccc(C2=CC3=C(Br)C(=O)C(C)(O)C(=O)C3=CO2)cc1 (centres undefined) , the logged AC50 turned out to be 2.62 µM (active)

So for CCN(CC)S(=O)(=O)c1cccc(C(=O)NCC(c2ccccc2)N(C)C)c1 (centres undefined) , the logged AC50 turned out to be 3.2 µM (active)

###

Entries and their AC50
# protocol-notes: Luminescence Cell-Based Dose Retest to Confirm Inhibitors of Cancer Stem Cells. [Related pubchem assays (depositor defined):AID2717, AID2721]
# Type: functional
# measurement-conditions: Homo sapiens
The source made the active and inactive calls.

COc1cc(OC)cc(-c2sc3ccc(OC)cc3c2C#CCO)c1    4.83 µM (active)
COc1cc(OC)cc(C(=O)NCCNc2nc3cc(C)cc(C)c3cc2C#N)c1    > 195 µM (inactive)
O=[N+]([O-])/C=C/c1cn(Cc2ccc(Cl)cc2)c2ccccc12    1.88 µM (active)
O=[N+]([O-])c1ccccc1-c1ccc(C(=S)N2CCN(c3ccccc3)CC2)o1    > 195 µM (inactive)

Field: next molecule
So for Cc1ccccc1/C=N/Nc1ccnc2cc(Cl)ccc12 , the logged AC50 turned out to be 3.62 µM (active)

###

Entries and their IC50
# assayed-system: UniProtKB P49327
# Sequence (P49327 whole entry, the tested form may be a part): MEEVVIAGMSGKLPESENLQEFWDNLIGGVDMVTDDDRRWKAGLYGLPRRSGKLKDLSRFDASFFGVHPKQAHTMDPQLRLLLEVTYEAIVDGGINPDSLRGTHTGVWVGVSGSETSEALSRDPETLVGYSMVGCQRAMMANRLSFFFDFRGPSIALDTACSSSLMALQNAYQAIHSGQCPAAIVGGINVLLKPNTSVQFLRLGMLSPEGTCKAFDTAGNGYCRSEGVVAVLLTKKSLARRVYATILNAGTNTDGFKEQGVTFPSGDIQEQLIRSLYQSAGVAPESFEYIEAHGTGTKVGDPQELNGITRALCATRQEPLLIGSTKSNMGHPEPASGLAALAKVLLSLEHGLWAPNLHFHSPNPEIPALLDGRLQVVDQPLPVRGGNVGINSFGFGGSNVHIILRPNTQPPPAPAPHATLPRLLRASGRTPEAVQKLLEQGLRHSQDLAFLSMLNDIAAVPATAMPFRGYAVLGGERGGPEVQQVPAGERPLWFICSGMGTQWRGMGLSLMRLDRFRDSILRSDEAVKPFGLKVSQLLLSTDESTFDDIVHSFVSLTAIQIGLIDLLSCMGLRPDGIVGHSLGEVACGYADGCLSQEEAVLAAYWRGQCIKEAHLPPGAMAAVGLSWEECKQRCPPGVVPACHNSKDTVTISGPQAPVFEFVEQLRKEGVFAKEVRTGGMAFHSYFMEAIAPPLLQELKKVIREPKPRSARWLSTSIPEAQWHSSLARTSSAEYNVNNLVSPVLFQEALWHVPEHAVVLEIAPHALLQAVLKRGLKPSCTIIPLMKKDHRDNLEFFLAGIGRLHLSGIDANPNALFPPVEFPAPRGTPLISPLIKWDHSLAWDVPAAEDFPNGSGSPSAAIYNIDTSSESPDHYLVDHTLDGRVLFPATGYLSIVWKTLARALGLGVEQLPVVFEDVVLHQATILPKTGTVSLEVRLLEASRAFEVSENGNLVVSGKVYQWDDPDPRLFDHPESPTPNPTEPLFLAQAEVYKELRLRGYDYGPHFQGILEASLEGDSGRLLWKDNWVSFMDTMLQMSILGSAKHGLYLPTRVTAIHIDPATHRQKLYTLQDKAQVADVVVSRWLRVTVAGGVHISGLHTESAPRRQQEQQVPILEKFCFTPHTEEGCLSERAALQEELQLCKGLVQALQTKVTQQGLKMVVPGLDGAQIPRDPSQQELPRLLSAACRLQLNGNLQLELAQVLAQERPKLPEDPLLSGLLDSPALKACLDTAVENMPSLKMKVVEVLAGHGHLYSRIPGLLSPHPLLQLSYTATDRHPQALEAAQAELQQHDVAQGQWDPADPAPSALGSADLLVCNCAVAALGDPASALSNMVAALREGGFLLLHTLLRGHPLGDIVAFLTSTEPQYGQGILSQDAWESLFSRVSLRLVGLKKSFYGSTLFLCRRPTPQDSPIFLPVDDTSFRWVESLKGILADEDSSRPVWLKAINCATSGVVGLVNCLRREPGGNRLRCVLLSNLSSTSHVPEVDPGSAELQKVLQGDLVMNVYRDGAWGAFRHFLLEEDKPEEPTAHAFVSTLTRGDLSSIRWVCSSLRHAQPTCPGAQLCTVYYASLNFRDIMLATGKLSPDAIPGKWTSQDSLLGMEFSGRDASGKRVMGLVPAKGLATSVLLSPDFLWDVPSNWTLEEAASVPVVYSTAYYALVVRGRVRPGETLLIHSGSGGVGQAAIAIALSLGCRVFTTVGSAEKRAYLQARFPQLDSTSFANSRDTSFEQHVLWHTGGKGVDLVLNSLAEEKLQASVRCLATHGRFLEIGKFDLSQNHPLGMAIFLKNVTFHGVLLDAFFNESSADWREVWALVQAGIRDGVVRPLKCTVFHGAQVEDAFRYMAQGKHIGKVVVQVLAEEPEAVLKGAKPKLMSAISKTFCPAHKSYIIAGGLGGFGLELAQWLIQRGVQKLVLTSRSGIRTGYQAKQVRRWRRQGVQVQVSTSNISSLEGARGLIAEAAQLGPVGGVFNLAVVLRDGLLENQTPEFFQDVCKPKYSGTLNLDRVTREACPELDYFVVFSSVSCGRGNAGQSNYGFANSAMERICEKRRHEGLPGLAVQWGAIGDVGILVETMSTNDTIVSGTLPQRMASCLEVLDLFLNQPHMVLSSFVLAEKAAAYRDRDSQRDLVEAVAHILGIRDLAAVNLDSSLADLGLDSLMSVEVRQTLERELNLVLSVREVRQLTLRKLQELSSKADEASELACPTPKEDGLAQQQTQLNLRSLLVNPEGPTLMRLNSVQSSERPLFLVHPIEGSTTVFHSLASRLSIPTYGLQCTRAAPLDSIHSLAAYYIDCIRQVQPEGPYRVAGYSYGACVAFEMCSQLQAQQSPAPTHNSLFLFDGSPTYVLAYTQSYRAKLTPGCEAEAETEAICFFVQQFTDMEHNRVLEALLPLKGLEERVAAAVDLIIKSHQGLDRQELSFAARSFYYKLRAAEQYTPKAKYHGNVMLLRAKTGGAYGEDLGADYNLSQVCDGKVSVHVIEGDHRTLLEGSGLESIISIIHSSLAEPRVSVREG
# protocol-notes: FAS thioesterase domain inhibitors, dose response, biochemical, endpoint fluorescence intensity, uHTS hits (AID 624327);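 further: fluorescence from hydrolysis of an O-methyl fluorescein acyl ester substrate by the enzyme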
# Format: functional
Activity calls are given as the source filed them.

In the examples that follow, each entry is paired with its recorded IC50.
Cc1cccc(C)c1/N=C1\C(Cl)=C(O)OC1OC(=O)c1ccccc1 (stereo not drawn)    4.46 µM (active)
CC[C@@]1(c2cccc(C)c2)C(=O)N(C(=O)OC)N1C(=O)OC    6.22 µM (active)

So for Cc1nn(Cc2ccc([N+](=O)[O-])cc2)c(=O)n1-c1cccc(Cl)c1 , the logged IC50 turned out to be 5.54 µM (active)

So for Cc1ccc(C(=O)NCC(=O)OCc2nnc(-c3ccc([N+](=O)[O-])cc3)o2)cc1 , the logged IC50 turned out to be 4.73 µM (active)

So for CSc1ccc(COC(=O)c2cc([N+](=O)[O-])ccc2N2CCOCC2)cc1 , the logged IC50 turned out to be 4.08 µM (active)
